# System: Fibroblast
# Experimental protocol: Multiplex assay against human fibroblast
# Type: toxicity, cell-based
# Setup conditions: 12 h, 1 µM, compound concentration 1 uM, replicate 2
Parameter: Population Membrane Permeable-Phenotype (%)
Reply with just the number (in %).

Worked examples, 10 molecules total:
Q: Fill in Population Membrane Permeable-Phenotype (%) for record "CCNc1cc(N[C@H]2CC[C@H](O)CC2)nc(Nc2ccc3c(ccn3Cc3ccccc3)c2)n1"
A: 8

Q: Fill in Population Membrane Permeable-Phenotype (%) for record "CCCn1c(=O)c2[nH]c(-c3cnn(Cc4cccc(C(F)(F)F)c4)c3)nc2n(CC)c1=O"
A: 8

Q: Fill in Population Membrane Permeable-Phenotype (%) for record "CCn1c(=O)c(-c2ccc(-c3cncs3)cc2Cl)cc2cnc(Nc3ccc(N4CCN(C)CC4)cc3)nc21"
A: 3

Q: Fill in Population Membrane Permeable-Phenotype (%) for record "Cc1cc(C)c(S(=O)(=O)N(Cc2ccc(-c3cccc(S(C)(=O)=O)c3)cc2)Cc2ccc(C(F)(F)F)o2)c(C)c1"
A: 3

Q: Fill in Population Membrane Permeable-Phenotype (%) for record "CN[C@@H]1C[C@H]2O[C@@](C)([C@@H]1OC)n1c3ccccc3c3c4c(c5c6ccccc6n2c5c31)C(=O)NC4"
A: 47

Q: Fill in Population Membrane Permeable-Phenotype (%) for record "CCN1CCN(c2ccc(Nc3cc(N(C)C(=O)Nc4c(Cl)c(OC)cc(OC)c4Cl)ncn3)cc2)CC1"
A: 18

Q: Fill in Population Membrane Permeable-Phenotype (%) for record CCOC(=O)c1c(C)[nH]c2ccc3c(c12)CN1CCc2cc(OC)ccc2C1O3 (stereo not given)
A: 3

Q: Fill in Population Membrane Permeable-Phenotype (%) for record "O=C(Nc1ccc(-c2ccnc(Nc3ccc(N4CCOCC4)cc3)n2)cc1)[C@@H]1CCCN1"
A: 4

Q: Fill in Population Membrane Permeable-Phenotype (%) for record "Cc1cn(-c2cc(NC(=O)c3ccc(C)c(Nc4nccc(-c5cccnc5)n4)c3)cc(C(F)(F)F)c2)cn1"
A: 1

Q: Fill in Population Membrane Permeable-Phenotype (%) for record "O=C1NC(=O)C(c2cnc3ccccn23)=C1c1cn2c3c(cc(F)cc13)CN(C(=O)N1CCCCC1)CC2"
A: 6

# evaluate next
Q: Fill in Population Membrane Permeable-Phenotype (%) for record "Cl.Oc1ccc2c3c1O[C@H]1c4[nH]c5c(c4C[C@@]4(O)[C@@H](C2)N(CC2CC2)CC[C@]314)C[C@@]1(O)[C@H]2Cc3ccc(O)c4c3[C@@]1(CCN2CC1CC1)[C@H]5O4"
A: 10

Values from ChEMBL document CHEMBL4689842
